test: yeast display, Sf9 membrane polyspecificity reagent, FACS + sequencing; frameworks hold sequencing errors
reported metric: polyreactivity (PSR sort gate)

QVQLVESGGGLVQAGGSLRLSCAASGSIFSYYVMGWYRQAPGKERELVAAITRSGGSTYYADSVKGRFTISRDNAKNTVYLQMNSLKPEDTAVYDCNALWRVRGDYWGQGTQVTVSS high polyreactivity
QVQLVESGGGLVQAGGSLRLSCAASGSIFAYYAMGWYRQAPGKERELVAVIRSGGSTYYADSVKGRFTISRDNEKNTVYLQMNSLNPEDTAVYYCAAPSYRPSRGDYWGQGTQVTVSS high polyreactivity
QVQLVESGGGLVQAGGSLRLSCAASGFTFYHNAMGWYRQAPGKERELVAAISGGGDSTYYADSVKGRFTISRDNAKNTVYLQMNSLKPEDTAVYYCATRRYPEVVNGEYGYWGQGTQVTVSS low polyreactivity
QVQLVESGGGLVQAGGSLRLSCAASGRTFSKYTMGWYRQEPGKESELVAVISRSGTRTYYADSVKGRFTISRDNANNTVYLQMNSMKPEDTAVYYCAAKDERRSFGMGYWGQGTQVTVTS high polyreactivity
QVQLVESGGGLVQAVGSLRLSCAASGSIFAVNTIGWYRQAPGKERELVASISQRGSSTYYADSVKGRFTISRDIAKNTVYLQMNSLIPEDTAVYYCAVVQRYWYAGIVPYDYWGQGTQVTVSS high polyreactivity
QVQLVESGGGLVQAGGSLRLNCAASGLIFSNNAMGWYRQAHRKERDLVAAITSSGSRTYYADSVKGRFTISRDNAQITVYLQMNSLKPEDTAVYYCAAYEVPYQRRYGYWGQGTQVTVSS high polyreactivity
QFQLVESGGGLVQAGGSLRLSCAASGRIFYPYAMGWYRQATGKEREFVATIRARGGDSTSYADSVKGRFTISRDNAKNTVYLQMNSLKPEDTGVYYCAALFYTYRWRYYVYHLDYWGHGTQVTVSS low polyreactivity
QVQLVESGGGLVQAGGSLRLSCAASGLTFGGNAMGWYRQAPGKERELVAAISWSDDTTDYADSVKGRFTISRDNGKYTVYLQMNSLKPEDTAVYYCAARLPFEHVDYWGQGTQVTVSS low polyreactivity
QVQLVESGGGLVQAGGSLRLSCAASGRIFKRYAMGWYRQAPGKERELVAAITRGGSTNYADSVKGRFTISRDNAKNSVYLQMYSLKPEYTAVYYCAATTSRPYRSRYYYWGQGTQVTVSS high polyreactivity
QVQLVESGGGLVQAGGSLRLAVLPPVLPSTLNDMGWYRQAPGKERELVAAITRGGSTNYADSVKGRFTISRDNAKNTVYLQMNSQKPEDTAVYYCAAPYAGWRDGGDNWGQGTQVTVSS low polyreactivity

--- query ---
Task item: Please look at this sequence and report its polyreactivity (PSR sort gate): QVQLVESGGGLVQAGGSLRLSCAASGFTFYKNTMGWYRQAPGKVRELVAAISSSGSSTYYADSVKGRFTISRDNAKNTVYLQMNSLKPEDTAVYYCAAGRFAYHDDYWGQGTHVTVSS
Reply: high polyreactivity
